# systemTested: T1, O6-bN
# T1 chain: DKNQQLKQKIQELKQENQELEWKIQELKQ
# assayProtocol: two-hybrid library CCNG1;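 also: natural log of median RNA to DNA barcode read ratio; higher means stronger binding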

- binder: "DKIQQLKQEIQELEQKNQELKWKNQELKQ [O4-bN]"
  interaction score: 0.639
- binder: "DEIQQLEQKIQELKQENQELEWENQELEQ [O3-bN]"
  interaction score: -0.337
- binder: "DKNQQLKQENQELEQEIQELEWEIQELEQ [O1-bN]"
  interaction score: -1.45
- binder: "DEIQQLEQENQELEQKIQELKWENQELEQ [O15-bN]"
  interaction score: -0.314

Values were extracted from paper PMC10397247.
